# assay-notes: Timed organ biodistribution of [^64Cu]Cu-DOTATATE by ex vivo gamma counting
# Assay type: in vivo, mice
# particulars: mouse, lymph node, intravenous, 1.85 MBq, total radioactivity; female C57BL/6 mice, 60 min after injection, median (IQR), N=3-7; read-out: Tissue radioactivity, lymph node
result-type: tissue uptake at 1 h (%ID/g)
Answer format: numeric, %ID/g implied, no suffix.

Find the measured tissue uptake at 1 h of C[C@@H](O)[C@H](NC(=O)[C@@H]1CSSC[C@H](NC(=O)[C@@H](Cc2ccccc2)NC(=O)CN2CCN(CC(=O)O)CCN(CC(=O)O)CCN(CC(=O)O)CC2)C(=O)N[C@@H](Cc2ccc(O)cc2)C(=O)N[C@H](Cc2c[nH]c3ccccc23)C(=O)N[C@@H](CCCCN)C(=O)N[C@@H]([C@@H](C)O)C(=O)N1)C(=O)O [[^64Cu]Cu-DOTATATE, metal not drawn] and report it.
1.3
